- tgt: TAS2R44 (Homo sapiens, UniProt P59538, L162M)
- Construct: RSS tag (first 45 amino acids of rat somatostatin receptor subtype 3, plus EcoRI site) (N); expressed in transfected cells
- Sequence (P59538 with tags, fused parts or gaps L162M): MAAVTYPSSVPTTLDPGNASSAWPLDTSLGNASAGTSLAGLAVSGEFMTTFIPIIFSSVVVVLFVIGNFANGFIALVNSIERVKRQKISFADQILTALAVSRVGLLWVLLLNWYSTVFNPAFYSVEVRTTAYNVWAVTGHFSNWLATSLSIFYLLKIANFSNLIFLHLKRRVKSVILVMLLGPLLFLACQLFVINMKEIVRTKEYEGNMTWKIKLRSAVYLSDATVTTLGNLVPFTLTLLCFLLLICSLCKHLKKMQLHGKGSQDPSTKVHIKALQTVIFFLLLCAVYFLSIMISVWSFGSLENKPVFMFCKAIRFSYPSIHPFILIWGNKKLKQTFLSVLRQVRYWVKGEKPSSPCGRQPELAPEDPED
- assayRemarks: Fluo-4 calcium assay, HEK293T cells expressing Gα16-gustducin44 and TAS2R44
- Format: cell-based
- recordedConditions: agonist sucralose alone; TAS2R44 (Example 9); read-out: EC50 Agonist
measurementType: EC50 (mM)

moleculesmiles=OC[C@H]1O[C@H](O[C@]2(CCl)O[C@H](CCl)[C@@H](O)[C@@H]2O)[C@H](O)[C@@H](O)[C@H]1Cl tgt="TAS2R44 (Homo sapiens, UniProt P59538, L162M)" measurementtype=EC50 unitname=mM quantitativeresult=36.3
